Taken from patent US10526314B2.

# target system: human V1a receptor (Homo sapiens, UniProt P37288)
# Construct: expressed in transfected cells; host or cells: CHO K1 (ATCC), also stably transfected with a modified aequorin
# Sequence (P37288 whole entry): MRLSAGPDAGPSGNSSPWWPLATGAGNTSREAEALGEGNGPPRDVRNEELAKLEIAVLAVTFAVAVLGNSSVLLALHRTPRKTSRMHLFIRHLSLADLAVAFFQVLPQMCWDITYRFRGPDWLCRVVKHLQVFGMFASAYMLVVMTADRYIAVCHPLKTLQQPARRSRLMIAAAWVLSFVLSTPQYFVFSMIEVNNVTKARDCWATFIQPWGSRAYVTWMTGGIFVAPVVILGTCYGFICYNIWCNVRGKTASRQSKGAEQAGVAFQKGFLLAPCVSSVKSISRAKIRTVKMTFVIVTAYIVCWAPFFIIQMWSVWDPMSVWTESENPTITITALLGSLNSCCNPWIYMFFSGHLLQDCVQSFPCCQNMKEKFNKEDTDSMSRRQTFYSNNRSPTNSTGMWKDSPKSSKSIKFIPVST
# assay procedure: Cellular in vitro assay for determining vasopressin receptor activity (V1a, aequorin luminescence)
# Type: cell-based
# details: CHO cell line transfected with human V1a receptor; [Arg8]-vasopressin at EC50 concentration; read-out: IC50 hV1a
# Method: B-1. Cellular In Vitro Assay for Determining Vasopressin Receptor Activity The identification of agonists and antagonists of the V1a and V2 vasopressin receptors from humans, rats and dogs as well as the quantification of the activity of the compounds of the invention is carried out using recombinant cell lines. […] The bioluminescence of the cell lines is detected using a suitable luminometer [Milligan G, Marshall F, Rees S, Trends in Pharmacological Sciences 17, 235-237 (1996)]. […]
measured attribute: IC50 (nM)

Take a look at these entries with their results.
Ask: Determine its reported IC50: `C[C@H](O)c1nc(Cn2nc(-c3ccc(Cl)cc3)n(C[C@H](O)C(F)(F)F)c2=O)nn1-c1ccncc1Cl`
Reply: 3

Ask: Determine its reported IC50: `C[C@@H](O)c1nc(Cn2nc(-c3ccc(Cl)cc3)n(C[C@H](O)C(F)(F)F)c2=O)nn1-c1ncccc1OC(F)(F)F`
Reply: 13

Ask: Determine its reported IC50: `C[C@H](O)c1nc(Cn2nc(-c3ccc(Cl)cc3)n(C[C@H](O)C(F)(F)F)c2=O)nn1-c1cccnn1`
Reply: 47.6

Ask: Determine its reported IC50: CC(O)c1nc(Cn2nc(-c3ccc(Cl)cc3)n(C[C@H](O)C(F)(F)F)c2=O)nn1-c1cccnc1 (single isomer, unassigned) [Example 26]
Reply: 34.3

Ask: Determine its reported IC50: `C[C@H](O)c1nc(Cn2nc(-c3ccc(Cl)cc3)n(C[C@H](O)C(F)(F)F)c2=O)nn1-c1ccc(Cl)cn1`
Reply: 8.25

[1] C[C@@H](O)c1nc(Cn2nc(-c3ccc(Cl)cc3)n(C[C@H](O)C(F)(F)F)c2=O)nn1-c1ncccc1C(F)(F)F
[2] C[C@H](O)c1nc(Cn2nc(-c3ccc(Cl)cc3)n(C[C@H](O)C(F)(F)F)c2=O)nn1-c1cnccn1
Ask: Which entry shows the lesser value of IC50 here, 1 or 2 ? Answer by quoting the chosen item's label.
Reply: 1
